# SYSTEM: human DDC (Homo sapiens, UniProt P20711)
# Construct: made in house
# Sequence (P20711 1-480): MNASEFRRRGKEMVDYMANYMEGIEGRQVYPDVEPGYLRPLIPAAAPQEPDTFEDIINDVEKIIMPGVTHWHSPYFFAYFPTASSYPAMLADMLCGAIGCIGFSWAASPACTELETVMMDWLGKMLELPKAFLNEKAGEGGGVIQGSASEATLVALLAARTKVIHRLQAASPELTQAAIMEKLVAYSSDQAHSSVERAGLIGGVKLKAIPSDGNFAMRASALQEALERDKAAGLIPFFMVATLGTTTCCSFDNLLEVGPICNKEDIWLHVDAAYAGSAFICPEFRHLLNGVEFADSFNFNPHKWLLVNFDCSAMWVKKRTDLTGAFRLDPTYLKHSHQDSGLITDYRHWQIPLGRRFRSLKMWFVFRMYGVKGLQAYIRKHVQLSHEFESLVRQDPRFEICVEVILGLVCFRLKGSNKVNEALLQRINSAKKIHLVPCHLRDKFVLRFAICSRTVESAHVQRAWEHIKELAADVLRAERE
# EXPERIMENTAL DETAILS: Assay of the inhibitory activity: spectrophotometric measurement of dopamine production by DDC
# Type: biochemical
# CONDITION LABEL: Ki, 50 nM enzyme, L-Dopa, 10 µM PLP, 0.1 M potassium phosphate pH 7.4, 25°C; from Lineweaver–Burk plots
REPORTED ENDPOINT: Ki (µM)
Give a bare numeral; the unit µM is implied.

Please give measured Ki of the following entry: Oc1cccc(/C=N/n2c(S)nnc2-c2ccccc2)c1O [Compound 23]
5.7
